tgt: MDM2 (Homo sapiens, UniProt Q00987)
Sequence (Q00987 whole entry): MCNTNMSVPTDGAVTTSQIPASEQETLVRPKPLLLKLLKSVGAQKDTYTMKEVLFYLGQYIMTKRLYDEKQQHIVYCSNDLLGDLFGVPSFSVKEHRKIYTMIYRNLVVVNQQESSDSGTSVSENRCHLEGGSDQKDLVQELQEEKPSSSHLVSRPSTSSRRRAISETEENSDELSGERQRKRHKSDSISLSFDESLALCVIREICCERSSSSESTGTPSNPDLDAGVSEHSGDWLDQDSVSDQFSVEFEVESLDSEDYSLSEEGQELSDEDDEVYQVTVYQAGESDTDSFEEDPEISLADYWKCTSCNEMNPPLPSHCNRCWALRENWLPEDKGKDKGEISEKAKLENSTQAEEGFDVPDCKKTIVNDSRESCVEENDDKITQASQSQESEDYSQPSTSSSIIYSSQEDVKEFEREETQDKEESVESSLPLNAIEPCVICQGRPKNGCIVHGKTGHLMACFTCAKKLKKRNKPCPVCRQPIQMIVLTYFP
procedure_summary: MDM2 binding screen of Libraries 3 and 4: displacement of fluorescent probe F-M8 at 750 nM macrocycle
measurement_context: Panel b, Library 3: 63 scaffolds combinatorially acylated with 15 carboxylic acids at 30 picomole scale; displacement of fluorescent peptide probe; macrocycle 750 nM
value_kind: fraction of fluorescent probe displaced
Note: the reply should be a number with no unit written.

See these solved cases before continuing.
| molecule | fraction of fluorescent probe displaced |
| --- | --- |
| O=C(/C=C/c1ccc(Cl)cc1)NC[C@H]1NC(=O)[C@H]2CCCN(C2)C(=O)CCSSCCNC(=O)[C@H](Cc2ccc3ccccc3c2)NC1=O | 0.021 |
| O=C1CCSSCCNC(=O)[C@H](Cc2cccc3ccccc23)NC(=O)[C@H](CNC(=O)c2ccc(Cl)cc2)NC(=O)C2(CC2)CN1 | 0.008 |
| O=C(/C=C/c1ccc2ccccc2c1)NC[C@H]1NC(=O)[C@@H]2CN(CCO2)C(=O)CCSSCCNC(=O)[C@@H](Cc2c[nH]c3ccccc23)NC1=O | 0.021 |
| O=C(NC[C@H]1NC(=O)[C@H]2CCCN(C2)C(=O)CCSSCCNC(=O)[C@H](Cc2c[nH]c3ccccc23)NC1=O)c1cccc(Oc2ccccc2)c1 | 0.008 |
| O=C(NCC1NC(=O)C2CN(CCO2)C(=O)CCSSCCNC(=O)C(Cc2c[nH]c3cc(Cl)ccc23)NC1=O)c1ccc(Cl)cc1 (stereo not drawn) | 0.088 |

### Prompt Lookup: fraction of fluorescent probe displaced / MDM2 (Homo sapiens, UniProt Q00987) / O=C(CCS(=O)(=O)c1ccccc1)NCCN1CC(=O)N[C@@H](Cc2ccc3ccccc3c2)C(=O)NCCSSCCC(=O)NCC2(CC2)C1=O
### Response 0.028

### Prompt Same again, this time with O=C1CCSSCCNC(=O)[C@@H](Cc2c[nH]c3ccccc23)NC(=O)[C@H](CNC(=O)C2CC2c2ccccc2)NC(=O)C2(CC2)CN1 (stereo partly drawn)
### Response -0.015

### Prompt And O=C1CN(CCNC(=O)c2ccc(Cl)s2)C(=O)[C@H]2CCCN(C2)C(=O)CCSSCCNC(=O)[C@H](Cc2c[nH]c3ccccc23)N1 ?
### Response -0.00533

### Prompt One more molecule: CN1C(=O)CN(CCNC(=O)/C=C/c2ccc3ccccc3c2)C(=O)C2(CC2)CNC(=O)CCSSCCNC(=O)[C@@H]1Cc1c[nH]c2ccccc12
### Response -0.019

### Prompt How about O=C1CCSSCCNC(=O)[C@H](Cc2cccc3ccccc23)NC(=O)[C@H](CNC(=O)c2cccc(Oc3ccccc3)c2)NC(=O)C2(CC2)CN1 ?
### Response 0.008

### Prompt Next: CC(Oc1cccc(Cl)c1)C(=O)NCCN1CC(=O)NC(Cc2cn(C)c3ccccc23)C(=O)NCCSSCCC(=O)NCC2(CC2)C1=O (mixture of isomers)
### Response 0.015

### Prompt Next entry: O=C(/C=C/c1ccc(OCc2ccccc2)cc1)NC[C@@H]1NC(=O)C2(CC2)CNC(=O)CCSSCCNC(=O)[C@H](Cc2ccc3ccccc3c2)NC1=O
### Response 0.041

### Prompt And O=C(NC[C@H]1NC(=O)[C@@H]2CN(CCO2)C(=O)CCSSCCNC(=O)[C@H](Cc2c[nH]c3ccccc23)NC1=O)c1cccc(Oc2ccccc2)c1 ?
### Response 0.015

### Prompt Likewise for O=C(/C=C/c1ccc2ccccc2c1)NC[C@@H]1NC(=O)[C@H]2CCCN(C2)C(=O)CCSSCCNC(=O)[C@H](Cc2ccc3ccccc3c2)NC1=O ?
### Response 0.021

### Prompt Try this molecule next: O=C(NC[C@H]1NC(=O)[C@H]2CCCN(C2)C(=O)CCSSCCNC(=O)[C@H](Cc2c[nH]c3cc(Cl)ccc23)NC1=O)c1ccc2ccccc2c1
### Response 0.024

### Prompt Here is the next molecule: O=C(O)C1CC1c1ccccc1 (stereo not drawn)
### Response -0.00844

### Prompt Here is the next molecule: O=C(/C=C/c1ccc(Cl)cc1)NC[C@@H]1NC(=O)[C@H]2CCCN(C2)C(=O)CCSSCCNC(=O)[C@H](Cc2c[nH]c3ccccc23)NC1=O
### Response 0.421

### Prompt How about this molecule: O=C(NC[C@H]1NC(=O)[C@@H]2CN(CCO2)C(=O)CCSSCCNC(=O)[C@H](Cc2c[nH]c3cc(Cl)ccc23)NC1=O)c1ccc(Cl)s1
### Response -0.00533

### Prompt Further, for O=C(/C=C/c1ccc(OCc2ccccc2)cc1)NC[C@H]1NC(=O)[C@@H]2CN(CCO2)C(=O)CCSSCCNC(=O)[C@H](Cc2c[nH]c3ccccc23)NC1=O ?
### Response -0.00533

### Prompt Try this molecule next: O=C(CCS(=O)(=O)c1ccccc1)NCCN1CC(=O)N[C@@H](Cc2c[nH]c3ccccc23)C(=O)NCCSSCCC(=O)NCC2(CC2)C1=O
### Response 0.021

### Prompt Subsequent entry: CC(Oc1cccc(Cl)c1)C(=O)NCCN1CC(=O)NC(Cc2cccc3ccccc23)C(=O)NCCSSCCC(=O)N2CCCC(C2)C1=O (mixture of isomers)
### Response -0.00533
